pIC50: −log10 of the molar value.
A compilation of published pIC50 results with High affinity nerve growth factor receptor (Homo sapiens, UniProt P04629).
Observable: pIC50

compound=CNC(=O)c1ccc(-c2cc(O[C@@H](C)C(F)(F)F)c3c(N)n[nH]c3c2)cc1N1CCN(c2cccnc2)CC1 observable=pIC50 bound_type== measured=7.53
compound="Cn1cc2cc(NC(=O)c3coc4c3C(=O)CC(C)(CO)C4)ccc2n1 (stereo not shown)" observable=pIC50 bound_type== measured=7.66
compound="Cc1cc(NC(=O)N[C@@H]2c3ccccc3C(C)(C)C[C@H]2O)c(C2CCOCC2)nc1-c1cnn(C)c1 (racemic)" observable=pIC50 bound_type=≥ measured=7.30
compound="CNC(=O)c1ccc(-c2cc(O[C@H](C)C(F)(F)F)c3c(N)n[nH]c3c2)cc1N1CCOC(CC(C)C)C1 (stereo partly shown)" observable=pIC50 bound_type== measured=6.17

---

// note: IC50 values for High affinity nerve growth factor receptor (Homo sapiens) were reported in different studies
Observable: IC50

molecule=COCCN1C[C@@H](NC(=O)Nc2c(Cl)c(-c3ccccc3)nn2-c2cccnc2)[C@H](c2ccc(F)c(F)c2)C1 measured="100 to 1000 nM"
molecule=O=C(Nc1cccc(F)c1)Nc1ccc(Cc2c[nH]c3ncccc23)cn1 measured="< 1000 nM"
molecule=COc1ncccc1N1C[C@@H](NC(=O)Nc2c(Br)c(-c3cnn(C)c3)nn2-c2ccccc2)[C@H](c2ccccc2)C1 measured="< 100 nM"
molecule=COCCN1C[C@@H](NC(=O)Nc2ccc(C)nc2-c2ccccc2)[C@H](c2cc(F)cc(F)c2)C1 measured="< 100 nM"
molecule=Clc1cnc2[nH]cc(Cc3cnc(Nc4ccccc4Cl)nc3)c2c1 measured="> 1000 nM"
molecule=Cc1c(C#Cc2cnc3ccc(N4CCOCC4)nn23)cccc1C(=O)Nc1cc(C(F)(F)F)cc(C(F)(F)F)c1 measured="10 to 100 nM"
molecule=COCCN1C[C@@H](NC(=O)Nc2c(-c3ccccc3)nsc2C(N)=O)[C@H](c2ccc(F)c(F)c2)C1 measured="< 100 nM"
molecule=CC(=O)Nc1ccc(NC(=O)c2coc3c2C(=O)N(C)CC3)cc1 measured="2110 nM"
molecule=O=C(c1ccc(Nc2ccc(C3CC3)nc2)nc1F)c1c[nH]c2ncccc12 measured="< 10 nM"
molecule="Cc1ncc(-c2nc(-c3ccccc3)c(NC(=O)N[C@@H]3c4ccccc4C(C)(C)C[C@H]3O)cc2C)cn1 (racemic)" measured="≤ 50 nM"
molecule=CNC(=O)c1ccc(-c2cc(OC3CCOCC3)c3c(N)n[nH]c3c2)cc1N1CCN(CC(F)(F)F)CC1 measured="30.5 nM"
molecule=CCOc1ccc(Nc2ccc(Cc3c[nH]c4ncnc(OCCOC)c34)c(F)n2)cn1 measured="< 10 nM"
molecule=CN(c1cc(F)cc(F)c1)c1ccc2[nH]nc(C#Cc3ccccn3)c2c1 measured="319 nM"
molecule=COCCN1C[C@@H](NC(=O)Nc2cc(-c3ccccc3F)nn2C)[C@H](c2ccc(F)c(F)c2)C1 measured="< 100 nM"
molecule=CCOc1nn(-c2ccccc2)c(NC(=O)N[C@@H]2CN(CCOC)C[C@H]2c2ccc(F)cc2)c1C measured="< 100 nM"
molecule=CNC(=O)c1ccc(-c2cc(OC3CCOCC3)c3c(C)n[nH]c3c2)cc1N1CCN(CC(F)(F)F)CC1 measured="95.8 nM"

---

Record set: IC50 | High affinity nerve growth factor receptor (Homo sapiens, UniProt P04629) | literature, multiple sources.
Observable: IC50 (nM)

molecule=CCc1ccc(Nc2ccc(C(=O)c3c[nH]c4ncnc(NC(C)C)c34)c(F)n2)cn1 units=nM bound_type=< measured=10
molecule=C[C@H]1CNC(=O)c2cnn3cc(-c4ccc(F)cc4)c(nc23)NCc2cc(F)cnc2O1 units=nM bound_type== measured=1240
molecule=CNC(=O)c1ccc(-c2cc(OC3CCOCC3)c3c(C)n[nH]c3c2)cc1N1CCN(C(=O)OCCOC)CC1 units=nM bound_type== measured=25.1
molecule=CNC(=O)c1ccc(-c2cc(O[C@H](C)C(F)(F)F)c3c(N)n[nH]c3c2)cc1N1CCC(C2CCCCC2)CC1 units=nM bound_type== measured=135

---

IC50 values for High affinity nerve growth factor receptor (Homo sapiens), compiled from several publications.
Observable: IC50

compound=Cc1c(C#Cc2cnc3ccc(NCCN4CCOCC4)nn23)cccc1C(=O)Nc1cc(Cl)cc(C(F)(F)F)c1 measured="< 10 nM"
compound=COCCN1C[C@@H](NC(=O)Nc2c(C)c(-c3cnn(CCO)c3)nn2-c2ccccc2)[C@H](c2ccc(F)c(F)c2)C1 measured="< 100 nM"
compound=Fc1cc(F)cc(Cc2ccc3[nH]nc(/C=C/c4ccccn4)c3c2)c1 measured="4.6 nM"
compound=COc1ccc(Nc2ccc(C(=O)c3c[nH]c4ncc(C)cc34)c(F)n2)cn1 measured="< 10 nM"
compound="COc1ccc(COc2ccc(Cn3cnc4cc(C5=CC6(C)CCCN5C6)ccc43)cc2OC)cn1 (stereo not shown)" measured="1480 nM"
compound=COCCN1C[C@@H](NC(=O)Nc2c(F)c(C)nn2-c2ccccc2)[C@H](c2ccc(F)c(F)c2)C1 measured="< 100 nM"
compound=COCCN1C[C@@H](NC(=O)Nc2sc(C(C)(C)O)nc2-c2ccccc2)[C@H](c2ccc(F)c(F)c2)C1 measured="< 100 nM"

---

The following compounds were reported with IC50 values on High affinity nerve growth factor receptor (Homo sapiens, UniProt P04629) in different studies.
Observable: IC50

compound=COCCN1C[C@H](NC(=O)Nc2c(C)c(OCCF)nn2-c2ccccc2)[C@@H](c2cncc(F)c2)C1 observable=IC50 measured="100 to 1000 nM"
compound=COCCN1C[C@@H](NC(=O)Nc2c(C)c(OCCS(C)(=O)=O)nn2-c2ccccc2)[C@H](c2ccc(F)c(F)c2)C1 observable=IC50 measured="< 100 nM"
compound=COCCN(C)CCCOc1cc2nccc(Oc3ccc(NC(=O)c4cn(C(C)C)c(=O)n(-c5ccc(F)cc5)c4=O)cc3F)c2c2c1OCCO2 observable=IC50 measured="< 50 nM"
compound=COCCN1C[C@@H](NC(=O)Nc2c(C)c(-c3cccnc3)nn2-c2ccccc2)[C@H](c2ccc(F)c(F)c2)C1 observable=IC50 measured="< 100 nM"
compound="COCCN1C[C@@H](NC(=O)Nc2c3c(nn2-c2ccccc2)CCCC3)[C@H](c2ccccc2)C1 (relative stereo)" observable=IC50 measured="< 100 nM"
compound=COCCOc1nc(N2CCN(C(C)=O)CC2)ccc1NC(=O)c1coc2c1C(=O)N(CCO)CC2 observable=IC50 measured="224 nM"
compound="Cc1cc(NC(=O)N[C@@H]2c3cc(F)c(F)cc3C(C)(C)C[C@H]2O)c(C2CCOCC2)nc1C(=O)NCC(C)(C)O (racemic)" observable=IC50 measured="50 to 1000 nM"
compound=Cc1c(Br)nn(-c2ccccc2)c1NC(=O)N[C@H]1CN(CC(F)(F)F)C[C@@H]1c1ccccc1 observable=IC50 measured="< 100 nM"
compound=NC(=O)c1ccc(NC(=O)c2coc3c2C(=O)NCC3)cc1 observable=IC50 measured="166 nM"
compound=CCOc1ccn(-c2ccc(F)cc2)c(=O)c1C(=O)Nc1ccc(Oc2ccnc3cc(OCCCN4CCOCC4)c4c(c23)OCCO4)c(Cl)c1 observable=IC50 measured="< 50 nM"
compound=C[C@H]1Nc2ccn3nc(F)c(c3n2)C(=O)N[C@H]2C[C@H](C2)Oc2ncc(F)cc21 observable=IC50 measured="0.52 nM"
compound=COc1ccc(COc2ccc(Cn3cnc4cc(N5CC6(CCNCC6)C5)cnc43)cc2OC)cn1 observable=IC50 measured="25 nM"
compound=CNC(=O)c1ccc(-c2cc(O[C@H](C)C(F)(F)F)c3c(N)n[nH]c3c2)cc1N1CCN(c2cnccn2)CC1 observable=IC50 measured="121 nM"
compound=CCOC(=O)c1c[nH]c2c(=O)[nH]c3ccc(-c4cccc(N)c4)cc3c12 observable=IC50 measured="1000 to 10000 nM"

---

Endpoint summary: IC50, system: High affinity nerve growth factor receptor (Homo sapiens), multiple sources combined.
Observable: IC50

compound=CCCS(=O)(=O)Nc1ccc(F)c(C(=O)c2c[nH]c3ncc(C#CCOC)cc23)c1F target_of_assay="High affinity nerve growth factor receptor (Homo sapiens)" measured="≤ 10000 nM"
compound=COc1ccc(Nc2ccc(Cc3c[nH]c4ncnc(C5CC5)c34)c(F)n2)cn1 target_of_assay="High affinity nerve growth factor receptor (Homo sapiens)" measured="< 100 nM"
compound=CCOc1ccn(-c2ccc(F)cc2)c(=O)c1C(=O)Nc1ccc(Oc2ccnc3cc(OCC(C)(C)O)c4c(c23)OCCO4)c(F)c1 target_of_assay="High affinity nerve growth factor receptor (Homo sapiens)" measured="< 50 nM"
compound="COCCN1C[C@@H](NC(=O)Nc2cc(C(C)(C)C)nn2-c2ccccc2C)[C@H](c2ccccc2)C1 (relative stereo)" target_of_assay="High affinity nerve growth factor receptor (Homo sapiens)" measured="1000 to 10000 nM"
compound=CCOc1ncnc2[nH]cc(Cc3ccc(Nc4cccnc4)nc3F)c12 target_of_assay="High affinity nerve growth factor receptor (Homo sapiens)" measured="< 1000 nM"
compound=COc1cc2nccc(Oc3ccc(NC(=O)c4c(OC)ccn(-c5ccc(F)cc5)c4=O)c(Cl)c3)c2c2c1OCCO2 target_of_assay="High affinity nerve growth factor receptor (Homo sapiens)" measured="< 50 nM"
compound=CCc1cc(Oc2ccnc3cc(OCCOC)c4c(c23)OCCO4)c(F)cc1NC(=O)c1cn(C)c(=O)n(-c2ccc(F)cc2)c1=O target_of_assay="High affinity nerve growth factor receptor (Homo sapiens)" measured="< 50 nM"
compound=COCCN1C[C@@H](NC(=O)Nc2c(C)c(-c3ccc(N)nc3)nn2-c2ccccc2)[C@H](c2ccc(F)c(F)c2)C1 target_of_assay="High affinity nerve growth factor receptor (Homo sapiens)" measured="< 100 nM"
compound=COCCN1C[C@@H](NC(=O)Nc2c(Cl)c(-c3cnn(C)c3)nn2-c2ccccc2)[C@H](c2ccccc2)C1 target_of_assay="High affinity nerve growth factor receptor (Homo sapiens)" measured="< 100 nM"
compound=COCCOC(=O)c1ccc(-c2cc(NC(=O)N[C@@H]3CN(CCOC)C[C@H]3c3ccc(F)c(F)c3)n(C)n2)cc1 target_of_assay="High affinity nerve growth factor receptor (Homo sapiens)" measured="< 100 nM"
compound=CCc1ccc(Nc2ccc(C(=O)c3c[nH]c4ncnc(N)c34)c(F)n2)cn1 target_of_assay="High affinity nerve growth factor receptor (Homo sapiens)" measured="< 10 nM"
compound="COCCN1C[C@@H](NC(=O)Nc2c(C)c(=O)[nH]n2-c2ccccc2)[C@H](c2ccc(F)c(Cl)c2)C1 (relative stereo)" target_of_assay="High affinity nerve growth factor receptor (Homo sapiens)" measured="< 100 nM"
compound=CC(C)n1cc(C(=O)Nc2ccc(Oc3ccnc4cc(OCCCN(C)C5CCC5)c5c(c34)OCCO5)c(F)c2)c(=O)n(-c2ccc(F)cc2)c1=O target_of_assay="High affinity nerve growth factor receptor (Homo sapiens)" measured="< 50 nM"
compound="COCCN1C[C@@H](NC(=O)Nc2cc(C(C)(C)C)nn2-c2cccnc2)[C@H](c2ccccc2)C1 (relative stereo)" target_of_assay="High affinity nerve growth factor receptor (Homo sapiens)" measured="1000 to 10000 nM"
compound=CNC(=O)c1ccc(-c2cc(O[C@@H](C)C(F)(F)F)c3c(N)n[nH]c3c2)cc1N1CCN(C2CCC2)CC1 target_of_assay="High affinity nerve growth factor receptor (Homo sapiens)" measured="422 nM"
compound=CCOc1ccn(-c2ccc(F)cc2)c(=O)c1C(=O)Nc1ccc(Oc2ccnc3cc(OCCCN4CCOCC4)c4c(c23)OCCO4)c(F)c1 target_of_assay="High affinity nerve growth factor receptor (Homo sapiens)" measured="< 50 nM"
compound=CC(=O)N1CCN(c2ccc(NC(=O)c3coc4c3C(=O)NC(C)(C)C4)c(O[C@H]3CCOC3)n2)CC1 target_of_assay="High affinity nerve growth factor receptor (Homo sapiens)" measured="10.2 nM"
compound=COCCN1C[C@@H](NC(=O)Nc2c(Br)c(-c3ccccc3)nn2C)[C@H](c2ccc(F)c(F)c2)C1 target_of_assay="High affinity nerve growth factor receptor (Homo sapiens)" measured="1000 to 10000 nM"
compound=COc1ccnc2[nH]cc(C(=O)c3cccc(NS(=O)(=O)c4ccc(C(F)(F)F)cc4)c3F)c12 target_of_assay="High affinity nerve growth factor receptor (Homo sapiens)" measured="≤ 10000 nM"
compound=C[C@H]1CNC(=O)c2cnn3cc(-c4ccccc4C(F)(F)F)c(nc23)NCc2cc(F)cnc2O1 target_of_assay="High affinity nerve growth factor receptor (Homo sapiens)" measured="1370 nM"
compound=COCCN1C[C@@H](NC(=O)Nc2cc(-c3ccccc3)nn2C)[C@H](c2ccc(F)cc2F)C1 target_of_assay="High affinity nerve growth factor receptor (Homo sapiens)" measured="< 100 nM"
compound=CC(C)(C)OC(=O)N1CCN(c2cc(-c3cc(OC4CCCC4)c4c(N)n[nH]c4c3)ccc2C(N)=O)CC1 target_of_assay="High affinity nerve growth factor receptor (Homo sapiens)" measured="13.7 nM"
compound=CCOc1ccn(-c2ccc(F)cc2)c(=O)c1C(=O)Nc1ccc(Oc2ccnc3cc(OCCCN4CCS(=O)(=O)CC4)c4c(c23)OCCO4)c(F)c1 target_of_assay="High affinity nerve growth factor receptor (Homo sapiens)" measured="< 50 nM"
compound=Cc1cc(NC(=O)N[C@@H]2c3ccccc3C(C)(C)C[C@H]2O)c(-c2ccccc2)nc1-c1ccnc(C(F)(F)F)c1 target_of_assay="High affinity nerve growth factor receptor (Homo sapiens)" measured="≤ 50 nM"
compound=CN1CCN(c2ccc(C(=O)Nc3n[nH]c4ncc(-c5ccccc5)cc34)cc2)CC1 target_of_assay="High affinity nerve growth factor receptor (Homo sapiens)" measured="213 nM"
compound=COc1ccc(Nc2ccc(Cc3c[nH]c4ncnc(C)c34)c(F)n2)cn1 target_of_assay="High affinity nerve growth factor receptor (Homo sapiens)" measured="< 100 nM"
compound=COCCN1C[C@@H](NC(=O)Nc2c(C)c(OCCN)nn2-c2ccccc2)[C@H](c2ccc(F)c(F)c2)C1 target_of_assay="High affinity nerve growth factor receptor (Homo sapiens)" measured="< 100 nM"
compound=CC[C@@H](O)COc1nn(-c2ccccc2)c(NC(=O)N[C@@H]2CN(CCOC)C[C@H]2c2cc(F)cc(F)c2)c1C target_of_assay="High affinity nerve growth factor receptor (Homo sapiens)" measured="< 100 nM"
